target: Mitogen-activated protein kinase 1 (Homo sapiens) (UniProt P28482); details: Compound concentration 20.0 uM, Protein concentration 2.0 uM, Result type QC Liability
Sequence (P28482 whole entry): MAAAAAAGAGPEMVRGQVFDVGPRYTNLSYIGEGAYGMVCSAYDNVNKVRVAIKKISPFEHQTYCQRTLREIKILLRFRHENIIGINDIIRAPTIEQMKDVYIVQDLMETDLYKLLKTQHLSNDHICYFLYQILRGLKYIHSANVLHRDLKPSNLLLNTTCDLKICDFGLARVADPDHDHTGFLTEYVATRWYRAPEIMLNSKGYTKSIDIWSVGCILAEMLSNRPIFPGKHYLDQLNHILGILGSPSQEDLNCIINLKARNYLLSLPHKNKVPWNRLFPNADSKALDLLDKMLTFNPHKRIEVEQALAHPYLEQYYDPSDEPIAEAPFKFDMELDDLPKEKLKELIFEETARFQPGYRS
Description: Thermal Shift Assay. Domain: start/stop: M1-S360
Simple rule here: ΔTm less than -0.1 °C is rule met, otherwise rule not met.

Worked examples follow.
- Compound: "CC(C)c1nc2c(c3c1[C@H](c1ccc(C(F)(F)F)cc1)OC31CCOCC1)[C@H](O)CC(C)(C)C2"
  Category: "rule met"
- Compound: "Cn1cncc1-c1cn(-c2cccc(C(=O)Nc3cccc(C(F)(F)F)c3)c2)nn1"
  Category: "rule met"
- Compound: "Cc1nn(-c2nc3ccc(Cl)c(Cl)c3[nH]2)c(O)c1C1OC(=O)c2ccccc21 (stereo not given)"
  Category: "rule not met"
- Compound: "CN(C)C/C=C/C(=O)Nc1cc2c(Nc3ccc(F)c(Cl)c3)ncnc2cc1OC[C@@H]1CCCO1"
  Category: "rule met"

Continue with the compound presented below.
stdin: State whether -0.1 °C exceeds ΔTm recorded for "Nc1ncc2c(n1)-c1c([nH]c3ccc(C4=CCOCC4)cc13)CCC2" .
stdout: rule not met

* * *

molecular target: Mitogen-activated protein kinase 1 (Homo sapiens) (UniProt P28482); details: Compound concentration 20.0 uM, Protein concentration 2.0 uM, Result type QC Liability
Result type: ΔTm (°C)
The answer is to be given in °C; state only the numeric part.

- Compound: "Cn1nc(C(=O)NCc2ccc(C(=O)O)cc2)cc1-c1ccc2[nH]ccc2c1"
  Experimental result: 0.47

Value of measured ΔTm for the entry "COc1ccc(C(=O)N[C@H](C)c2cccc(C(=O)Nc3nc4c(s3)CN(C)CC4)c2)cc1C" : 0.45

Consider "Cc1n[nH]c2ncc(C(=O)N3CCC[C@H]3c3ccc(Cl)cc3)cc12" . Its measured ΔTm is 0.69

Entry under test: "CSc1nc2c(c(=O)n(C)c(=O)n2C)n1C" . Its ΔTm was 0.33

* * *

target: Tyrosine-protein kinase ABL1 (Homo sapiens); conditions: Compound concentration 20.0 uM, Protein concentration 2.0 uM, Result type QC Liability
Description: Thermal Shift Assay. Domain: start/stop: S229-K512
Please note: Y applies when ΔTm is 3 °C or greater, and N applies otherwise.

stdin: Is ΔTm for "COc1ccccc1Nc1nc(-c2nn(Cc3c(F)cc(OCCCO)cc3F)c3ccccc23)ncc1OC" at or above 3 °C?
stdout: N

* * *

molecular target: Glycogen synthase kinase-3 beta (Homo sapiens) (UniProt P49841); conditions: Compound concentration 20.0 uM, Protein concentration 2.0 uM, Result type QC Liability
Sequence (P49841 whole entry, looked up): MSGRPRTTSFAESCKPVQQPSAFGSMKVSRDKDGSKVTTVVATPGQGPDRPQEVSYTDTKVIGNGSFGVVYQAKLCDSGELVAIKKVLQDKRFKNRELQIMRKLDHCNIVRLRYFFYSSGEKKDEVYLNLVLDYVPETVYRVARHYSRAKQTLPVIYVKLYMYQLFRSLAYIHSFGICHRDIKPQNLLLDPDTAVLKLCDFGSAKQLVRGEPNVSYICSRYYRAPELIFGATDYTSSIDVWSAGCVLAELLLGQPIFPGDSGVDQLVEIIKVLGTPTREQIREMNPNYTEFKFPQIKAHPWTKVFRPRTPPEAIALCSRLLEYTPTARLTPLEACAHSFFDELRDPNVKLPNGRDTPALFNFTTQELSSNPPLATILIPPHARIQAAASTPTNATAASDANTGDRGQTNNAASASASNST
Description: Thermal Shift Assay. Domain: start/stop: M26-R383
Result type: ΔTm (°C)
Numeric answer only, unit °C assumed.

- Line notation: "CC(C)N1CCN(Cc2cnc(-c3cc(-c4cccc5[nH]ccc45)cc4[nH]ncc34)o2)CC1"
  ΔTm (°C): 3.63
- Line notation: "CC(C)Nc1ncnc2cc(OCc3cccc([S@@](C)(=N)=O)c3)c(Br)cc12"
  ΔTm (°C): -0.51
- Line notation: "CN1C(=O)[C@@H](NC(=O)c2cc(Cc3ccccc3)on2)COc2ccccc21"
  ΔTm (°C): -4.43

Measured ΔTm of "Cc1ncsc1-c1ccc(CNC(=O)[C@@H]2C[C@@H](O)CN2C(=O)[C@@H](NC(=O)C2(F)CC2)C(C)(C)C)c(OCCOc2ccc(CN3CCN(c4cc(-c5ccccc5O)nnc4N)CC3)cc2)c1" : 9.47

The compound "CN1CCN(c2ccc(-n3cc(-c4ccncc4OCC4CCNCC4)cn3)cc2)CC1" showed ΔTm equal to -0.06

The reported value for "Cc1nc2ccccc2c(-c2ccc3c4c(ccnc24)CCO3)c1[C@H](OC(C)(C)C)C(=O)O" in terms of ΔTm is -0.88

Reported ΔTm for "C[C@H](NC(=O)c1cc(Cl)ccc1Oc1ccc(F)cc1)c1ccc(C(=O)O)cc1" was 0.51

Per the record, "COCCCS(=O)(=O)c1cc(C)c(-c2ccc(F)c3c2CC[C@H]3Oc2ccc3c(c2)OC[C@H]3CC(=O)O)c(C)c1" has ΔTm of 0
